Measured values drawn from patent US10098967B2 for this set.

- Assay Notes: Solubility in PBS and water
- Assay type: physicochemical
- Condition Set: pure water (H2O)
- Procedure: Three CPT-tetrapeptide (KFKK (SEQ ID NO:6)) conjugates were prepared that have alternating hydrophobic and hydrophilic sequence similar to the dipeptide derivatives with one additional lysine bearing a charged free amine. Compound E, F, and G were soluble in both H2O and PBS but as hydrophobicity decreased by changing the N-termini from -Fmoc to —NH2, solubility in both solutions increased.
Peptide text beside a SMILES is read from it. * marks the point of attachment. Succinyl(20-O-(20S)-CPT) = CC[C@@]1(OC(=O)CCC(=O)*)C(=O)OCc2c1cc1n(c2=O)Cc2cc3ccccc3nc2-1; Fmoc = O=C(OCC1c2ccccc2-c2ccccc21)*
Measure: solubility in water

Compound: CC[C@@]1(OC(=O)CCC(=O)NCCCC[C@H](NC(=O)[C@H](CCCCN)NC(=O)[C@H](Cc2ccccc2)NC(=O)[C@H](CCCCN)NC(C)=O)C(N)=O)C(=O)OCc2c1cc1n(c2=O)Cc2cc3ccccc3nc2-1 [Compound F, Ac-KFKK(CPT)-NH2] (Ac-KFKK(Succinyl(20-O-(20S)-CPT))-NH2)
Measure: solubility in water
Observed Value: soluble
--
Compound: CC[C@@]1(OC(=O)CCC(=O)NCCCC[C@H](NC(=O)[C@H](CCCCN)NC(=O)[C@H](Cc2ccccc2)NC(=O)[C@@H](N)CCCCN)C(N)=O)C(=O)OCc2c1cc1n(c2=O)Cc2cc3ccccc3nc2-1 [G, NH2—KFKK(CPT)-NH2] (H-KFKK(Succinyl(20-O-(20S)-CPT))-NH2)
Measure: solubility in water
Observed Value: soluble
--
Compound: CC[C@@]1(OC(=O)CCC(=O)NCCCC[C@H](NC(=O)[C@H](CCCCN)NC(=O)[C@H](Cc2ccccc2)NC(=O)[C@H](CCCCN)NC(=O)OCC2c3ccccc3-c3ccccc32)C(N)=O)C(=O)OCc2c1cc1n(c2=O)Cc2cc3ccccc3nc2-1 [Compound E, Fmoc-KFKK(CPT)-NH2] (Fmoc-KFKK(Succinyl(20-O-(20S)-CPT))-NH2; N-terminus and C-terminus assumed)
Measure: solubility in water
Observed Value: soluble
